B1: POU domain, class 4, transcription factor 1, residues 266 to 347; numbered along this chain, Q01851 (parent)
chain: RELEAFAERFKQRRIKLGVTQADVGSALANLKIPGVGSLSQSTICRFESLTLSHNNMIALKPILQAWLEEAEGAQREKMNKP

Variants of: B1
assay.summary: abundance fitness (aPCA) (normalised: wild type 0, dead -1); higher = more abundant; growth selection in yeast, the domain comes from the species named
experimental.setup: Homo sapiens
Label class 0 if abundance fitness falls below -0.1; label class 1 in every other case.

For orientation, consider the following solved cases.
N80G    class 1
A74Q    class 1
G25Y    class 1
A66R    class 1
M57T    class 0
I58C    class 1
L31S    class 1
D23Q    class 1

Answer whether abundance fitness of A7L is greater than or equal to -0.1. class 0

Answer whether abundance fitness of P82Q is greater than or equal to -0.1. class 1

Answer whether abundance fitness of I44N is greater than or equal to -0.1. class 0

Answer whether abundance fitness of L3R is greater than or equal to -0.1. class 0

Answer whether abundance fitness of I63R is greater than or equal to -0.1. class 0
